Target: Bovine cardiac myosin (Bos taurus (Bovine), UniProt Q9BE39)
Sequence (Q9BE39 whole entry): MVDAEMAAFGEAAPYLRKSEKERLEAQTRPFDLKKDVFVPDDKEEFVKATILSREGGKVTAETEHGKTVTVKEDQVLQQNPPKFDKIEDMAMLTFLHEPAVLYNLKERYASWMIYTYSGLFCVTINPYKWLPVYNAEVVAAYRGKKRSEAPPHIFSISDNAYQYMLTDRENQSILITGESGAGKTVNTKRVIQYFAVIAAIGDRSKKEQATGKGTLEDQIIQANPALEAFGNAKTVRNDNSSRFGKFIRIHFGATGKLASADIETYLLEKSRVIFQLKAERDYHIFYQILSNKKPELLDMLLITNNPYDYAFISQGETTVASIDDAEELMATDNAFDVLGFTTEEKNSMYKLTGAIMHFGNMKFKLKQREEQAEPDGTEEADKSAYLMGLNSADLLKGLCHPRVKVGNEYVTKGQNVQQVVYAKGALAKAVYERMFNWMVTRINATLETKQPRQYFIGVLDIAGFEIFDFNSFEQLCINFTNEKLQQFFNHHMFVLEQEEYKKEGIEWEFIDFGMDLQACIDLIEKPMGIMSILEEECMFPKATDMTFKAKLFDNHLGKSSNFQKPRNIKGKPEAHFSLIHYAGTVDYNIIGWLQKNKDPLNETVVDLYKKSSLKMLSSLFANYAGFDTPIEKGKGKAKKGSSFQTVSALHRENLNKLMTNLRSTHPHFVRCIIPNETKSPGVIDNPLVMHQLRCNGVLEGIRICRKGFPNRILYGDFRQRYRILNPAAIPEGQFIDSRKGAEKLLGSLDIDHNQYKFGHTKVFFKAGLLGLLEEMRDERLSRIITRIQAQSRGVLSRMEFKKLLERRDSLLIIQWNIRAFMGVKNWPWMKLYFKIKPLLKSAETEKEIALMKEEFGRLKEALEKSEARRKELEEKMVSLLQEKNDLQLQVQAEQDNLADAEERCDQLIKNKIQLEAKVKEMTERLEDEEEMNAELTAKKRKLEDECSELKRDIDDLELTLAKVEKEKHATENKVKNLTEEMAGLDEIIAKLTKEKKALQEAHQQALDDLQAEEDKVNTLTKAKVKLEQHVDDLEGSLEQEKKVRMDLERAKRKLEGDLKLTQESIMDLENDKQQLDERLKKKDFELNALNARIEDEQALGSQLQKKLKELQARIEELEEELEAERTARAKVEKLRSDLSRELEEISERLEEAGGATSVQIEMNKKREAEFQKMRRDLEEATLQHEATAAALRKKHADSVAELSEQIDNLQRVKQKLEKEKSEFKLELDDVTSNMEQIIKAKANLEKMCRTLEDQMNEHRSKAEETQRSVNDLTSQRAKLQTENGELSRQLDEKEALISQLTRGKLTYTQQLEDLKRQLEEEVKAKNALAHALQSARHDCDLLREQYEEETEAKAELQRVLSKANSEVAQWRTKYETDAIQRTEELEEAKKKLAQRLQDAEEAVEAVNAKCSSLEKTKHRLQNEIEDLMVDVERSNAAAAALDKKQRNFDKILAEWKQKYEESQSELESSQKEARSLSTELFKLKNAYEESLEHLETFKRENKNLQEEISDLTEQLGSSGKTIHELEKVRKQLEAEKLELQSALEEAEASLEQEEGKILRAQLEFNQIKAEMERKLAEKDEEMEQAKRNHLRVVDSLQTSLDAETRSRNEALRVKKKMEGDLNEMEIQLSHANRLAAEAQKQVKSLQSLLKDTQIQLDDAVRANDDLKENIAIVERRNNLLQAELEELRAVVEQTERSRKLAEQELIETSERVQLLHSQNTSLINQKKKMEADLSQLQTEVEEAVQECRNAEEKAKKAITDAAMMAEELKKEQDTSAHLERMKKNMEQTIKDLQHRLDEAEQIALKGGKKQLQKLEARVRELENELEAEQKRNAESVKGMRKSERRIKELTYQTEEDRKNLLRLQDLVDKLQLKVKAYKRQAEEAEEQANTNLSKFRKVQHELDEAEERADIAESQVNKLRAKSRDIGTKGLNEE
Sequence (P85100 whole entry partner): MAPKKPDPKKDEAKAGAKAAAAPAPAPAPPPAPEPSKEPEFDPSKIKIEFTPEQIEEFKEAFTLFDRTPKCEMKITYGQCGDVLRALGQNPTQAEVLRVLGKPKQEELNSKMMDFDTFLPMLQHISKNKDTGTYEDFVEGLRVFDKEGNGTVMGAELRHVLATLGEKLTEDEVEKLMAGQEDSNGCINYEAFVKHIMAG
Sequence (Q3SZE5 whole entry partner): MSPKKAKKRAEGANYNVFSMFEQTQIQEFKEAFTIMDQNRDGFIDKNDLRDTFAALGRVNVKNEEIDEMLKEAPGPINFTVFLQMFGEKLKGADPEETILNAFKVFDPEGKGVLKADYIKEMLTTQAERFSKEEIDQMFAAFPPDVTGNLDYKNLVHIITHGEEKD
Assay: Cardiac muscle myosin II actin-activated ATPase assay (NADH-coupled)
Format: biochemical
Settings: cardiac myosin II Ki over nonmuscle myosin II EC50
Procedure: The cardiac muscle myosin II actin-activated ATPase assay is a biochemical assay. Specifically, it is an NADH (nicotinamide adenine dinucleotide)-coupled ATPase assay that relies on NADH fluorescence as a readout. […] NADH fluorescence is monitored for 30 minutes with an EnVision Multimode Plate Reader. The slope of the fluorescence response, which is proportional to the reaction rate, is determined by simple linear regression. […]
Exercise: for every item that follows, state its recorded Ratio CMMII:NMII Ki/EC50.
Form rule: numeric answer, no unit written next to it.

*Q* Answer with the recorded Ratio CMMII:NMII Ki/EC50 of Cc1ccc2c(c1)C(=O)[C@]1(O)CCN(c3cnc4sccc4c3)C1=N2 only.
*A* 7.4

*Q* Answer with the recorded Ratio CMMII:NMII Ki/EC50 of Cc1ccc2c(c1)C(=O)[C@]1(O)CCN(c3ccc4ncc(C)cc4c3)C1=N2 only.
*A* 10.3

*Q* Answer with the recorded Ratio CMMII:NMII Ki/EC50 of Cc1cc2c(cc1F)C(=O)[C@]1(O)CCN(c3ccc(C#N)cc3)C1=N2 only.
*A* 7.1

*Q* Answer with the recorded Ratio CMMII:NMII Ki/EC50 of O=C1c2cc(C(F)(F)F)ccc2N=C2N(c3ccccc3)CC[C@@]12O only.
*A* 6.9

*Q* Answer with the recorded Ratio CMMII:NMII Ki/EC50 of CCc1nc2cc(N3CC[C@@]4(O)C(=O)c5cc(C)c(C)cc5N=C34)ccc2s1 only.
*A* 5.5

*Q* Answer with the recorded Ratio CMMII:NMII Ki/EC50 of COc1ccc(N2CC[C@@]3(O)C(=O)c4c(sc(C)c4C)N=C23)cc1 only.
*A* 3.1
